# SUBJECT OF TEST: T1, X-box binding protein 1 (XBP1) bZIP construct, C-terminally fluoresceinated (human, UniProt P17861 70-133, fluorescein at the C-terminus)
# T1 construct: source: previously described, donated by A.W. Reinke [18]
# T1 sequence (looked up): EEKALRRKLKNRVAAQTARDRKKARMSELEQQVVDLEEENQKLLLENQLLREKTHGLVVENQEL
# TEST SUMMARY: FRET or BRET; direct-binding FRET at 37°C; 10 nM fluorescein-labelled bZIP (donor), rhodamine-labelled design (acceptor) titrated 0 to 1 μM; 150 mM KCl, 50 mM potassium phosphate pH 7.4, 0.1% Tween-20, 0.1% BSA
# CONDITION: both partners purified
Where no end group is shown, it is not given here.
MEASURED ENDPOINT: Kd (nM)
// units = nM; emit number, no label

What does the record list as Kd for XBP1-d1, rhodamine-labelled at the C-terminus (designed binder, solubility linker after the His tag; added at the C-terminus for labelling; built from heptads of native and previously designed bZIPs; source: E. coli RP3098, purified (Ni-NTA under denaturing conditions, reverse-phase HPLC)) GESKEYKKGSGSEREAQLENRVAHLKEKNQELKAQNLHLKEALSEAQNRNQELKNDAGC(Rhodamine Red C2‑maleimide) ?
172

Data provenance: paper PMC4335062
